biological target: AgSho1; test: SPOT peptide array binding signal intensity (averaged, normalized) (arbitrary units (background-subtracted, floor 0; scale differs between SH3 domains)); higher = stronger binding of the SH3 domain to the peptide
Give YES when the value for SPOT peptide array binding signal intensity is at least 30. Give NO when it is less.

In: // inclusive: SPOT peptide array binding signal intensity at least 30? input: `FYHRPAPKPPVTKKV`
Out: NO

In: Reported SPOT peptide array binding signal intensity reaches at least 30 for `DKSRPPRPPPKPLHL` ?
Out: YES

In: State whether the measured SPOT peptide array binding signal intensity reaches 30, counting equality as reaching it, for `NNQRRKPLLLNIGDH`
Out: NO

In: Dear colleague, could you confirm whether `RKLRTVPGVPLIHLT` has SPOT peptide array binding signal intensity at or above 30?
Out: NO

In: Can `VYTRTAFQIPGDDKI` be said to have SPOT peptide array binding signal intensity at or above 30?
Out: NO

In: # check: SPOT peptide array binding signal intensity of `LLRRTIPKRPFYHVL` is greater than or equal to 30
Out: YES

In: Decide: SPOT peptide array binding signal intensity of `ISNFVPPNLPMRRFK` >= 30?
Out: NO

In: Decide: is the reported value of SPOT peptide array binding signal intensity for `SLSRRRFSLPSMPNV` equal to or greater than 30?
Out: NO

In: Is reported SPOT peptide array binding signal intensity greater than or equal to 30 here: `GRLRPKRIAPWHLIQ`
Out: NO

In: Does `TYNRTAFQIPGDQSI` have a reported SPOT peptide array binding signal intensity of at least 30?
Out: NO

In: Could you please find out whether `YVRRRPRVRLEPLLS` has SPOT peptide array binding signal intensity that meets 30 or exceeds it?
Out: YES

In: Hello, I need to know if `PVLPPPRSPNRPTLS` has measured SPOT peptide array binding signal intensity not below 30. Thanks!
Out: NO

In: Reported SPOT peptide array binding signal intensity at or above 30? `GDHPKGPPPPPPPDE`
Out: NO

In: // inclusive: SPOT peptide array binding signal intensity at least 30? input: `KTITLEVESSDTIDN`
Out: NO

In: Evaluate `DGNEEKPLLPTRPNK` : SPOT peptide array binding signal intensity at minimum 30?
Out: NO

Ref: the supplement of paper PMC4466140
